- assaySummary: Metabolite profiling and identification in rat hepatocytes
- Format: in vitro ADME, rat (Sprague Dawley)
- reportedConditions: relative abundance among metabolites of the parent (1 μM), rat hepatocytes, 2 hr, equal LC/MS sensitivity assumed
Hi! Just check whether Percent Distribution (2 hr incubation) Rat is below 10%. Below gives 1, equal or above gives -1.

Solved entries (count: 4):
O=C(O)CCCCCc1ccc(CCC(CO)(CO)NC(=O)CC[P+](c2ccccc2)(c2ccccc2)c2ccccc2)cc1 | -1
CC(=O)NC(CO)(CO)CCc1ccc(CCCCCCCC(=O)O)cc1 | -1
O=C(O)CCCCCCCc1ccc(CCC(CO)(CO)NC(=O)CC[P+](c2ccccc2)(c2ccccc2)c2ccccc2)cc1 | 1
CC(=O)NC(CO)(CO)CCc1ccc(CC(=O)O)cc1 | -1

Quick check: does CC(=O)NC(CO)(CO)CCc1ccc(CCCC(=O)O)cc1 have Percent Distribution (2 hr incubation) Rat under 10%?
-1
